Numbers sourced from ChEMBL document CHEMBL1148281.

What follows is a collection of Ki values obtained with Carbonic anhydrase 1 (Homo sapiens).
Sequence (P00915 whole entry): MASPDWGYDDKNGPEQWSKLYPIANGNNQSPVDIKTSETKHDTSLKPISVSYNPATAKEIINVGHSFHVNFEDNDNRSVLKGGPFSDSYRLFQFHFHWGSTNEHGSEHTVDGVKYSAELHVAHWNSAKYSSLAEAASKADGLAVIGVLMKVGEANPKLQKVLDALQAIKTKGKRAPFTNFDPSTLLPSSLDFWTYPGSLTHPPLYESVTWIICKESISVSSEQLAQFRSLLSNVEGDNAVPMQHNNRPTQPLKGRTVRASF
Answer with the value and then the unit.

Before answering, review these 6 worked examples.
CHEM_SMILES	Ki
NS(=O)(=O)c1ccc(NC(=O)Nc2c(F)c(F)c(F)c(F)c2F)c(Cl)c1	1300 nM
NS(=O)(=O)c1ccc(Nc2ccnc(NS(=O)(=O)c3c(F)c(F)cc(F)c3F)n2)cc1	320 nM
NS(=O)(=O)c1ccc(NS(=O)(=O)c2c(F)c(F)cc(F)c2F)c(F)c1	580 nM
NS(=O)(=O)c1ccc(CNC(=O)Nc2c(F)c(F)c(F)c(F)c2F)cc1	1000 nM
NS(=O)(=O)c1cc(S(N)(=O)=O)c(NC(=O)Nc2c(F)c(F)c(F)c(F)c2F)cc1Cl	740 nM
NS(=O)(=O)c1nnc(NC(=O)Nc2c(F)c(F)c(F)c(F)c2F)s1	270 nM

The recorded Ki with Carbonic anhydrase 1 (Homo sapiens) for NS(=O)(=O)c1ccc(NS(=O)(=O)c2c(F)c(F)cc(F)c2F)c(Cl)c1 was 930 nM

* * *

molecular target: UniProtKB Q95323
Criterion: Ki strictly under 30 nM. Met: 1.0. Not met: 0.0.

Reference set (5 entries):
CHEM_SMILES	GROUP
NS(=O)(=O)c1nnc(NC(=O)c2c(F)c(F)cc(F)c2F)s1	1.0
Cn1nc(S(N)(=O)=O)s/c1=N/C(=O)c1c(F)c(F)cc(F)c1F	1.0
NS(=O)(=O)c1ccc(Nc2ccnc(NS(=O)(=O)c3c(F)c(F)cc(F)c3F)n2)cc1	1.0
NS(=O)(=O)c1nnc(NC(=O)Nc2c(F)c(F)c(F)c(F)c2F)s1	0.0
NS(=O)(=O)c1cc(S(N)(=O)=O)c(NC(=O)Nc2c(F)c(F)c(F)c(F)c2F)cc1Cl	0.0

**Q:** Quick check: Ki of NS(=O)(=O)c1ccc(NS(=O)(=O)c2c(F)c(F)cc(F)c2F)c(F)c1 under 30 nM?
**A:** 0.0

* * *

What follows is a collection of Ki values obtained with Carbonic anhydrase 4 (Bos taurus, UniProt Q95323).
Sequence (Q95323 whole entry): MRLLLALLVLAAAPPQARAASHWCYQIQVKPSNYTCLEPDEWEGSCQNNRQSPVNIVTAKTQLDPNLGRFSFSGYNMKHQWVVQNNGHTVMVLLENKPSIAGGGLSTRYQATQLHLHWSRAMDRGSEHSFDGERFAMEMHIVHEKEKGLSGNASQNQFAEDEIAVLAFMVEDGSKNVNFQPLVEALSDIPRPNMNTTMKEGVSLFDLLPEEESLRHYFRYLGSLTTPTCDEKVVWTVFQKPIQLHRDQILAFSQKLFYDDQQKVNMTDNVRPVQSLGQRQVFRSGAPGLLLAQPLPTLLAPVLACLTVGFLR

Before answering, review these 4 worked examples.
CHEM_SMILES	Ki
NS(=O)(=O)c1ccc(NC(=O)Nc2c(F)c(F)c(F)c(F)c2F)cc1	21 nM
NS(=O)(=O)c1ccc(CNC(=O)Nc2c(F)c(F)c(F)c(F)c2F)cc1	50 nM
NS(=O)(=O)c1ccc(NC(=O)c2c(F)c(F)cc(F)c2F)c(Cl)c1	42 nM
NS(=O)(=O)c1cccc(NC(=O)Nc2c(F)c(F)c(F)c(F)c2F)c1	430 nM

Here's the next entry for you.
Reported Ki of NS(=O)(=O)c1ccc(CNC(=O)c2c(F)c(F)cc(F)c2F)cc1 : 120 nM

* * *

What follows is a collection of log10 of Ki values obtained with UniProt P00918.
Values are log10 of Ki in nM.

CHEM_SMILES	log10 of Ki
NS(=O)(=O)c1ccc(NS(=O)(=O)c2c(F)c(F)cc(F)c2F)c(F)c1	0.58
NS(=O)(=O)c1ccc(NS(=O)(=O)c2c(F)c(F)cc(F)c2F)cc1	1.40
NS(=O)(=O)c1nnc(NC(=O)Nc2c(F)c(F)c(F)c(F)c2F)s1	0.56

The recorded log10 of Ki with UniProt P00918 for Cn1nc(S(N)(=O)=O)s/c1=N/C(=O)c1c(F)c(F)cc(F)c1F was 0.15

The recorded log10 of Ki with UniProt P00918 for NS(=O)(=O)c1ccccc1NC(=O)Nc1c(F)c(F)c(F)c(F)c1F was 1.64

The recorded log10 of Ki with UniProt P00918 for NS(=O)(=O)c1ccc(CNC(=O)Nc2c(F)c(F)c(F)c(F)c2F)cc1 was 1.18
